Measured values drawn from patent US7026327B2 for this set.

Target: microsomal h-COX2 (Homo sapiens)
Construct: made in house; host or cells: baculovirus infected SF9 cells (microsomal preparation)
Sequence (P35354 18-604): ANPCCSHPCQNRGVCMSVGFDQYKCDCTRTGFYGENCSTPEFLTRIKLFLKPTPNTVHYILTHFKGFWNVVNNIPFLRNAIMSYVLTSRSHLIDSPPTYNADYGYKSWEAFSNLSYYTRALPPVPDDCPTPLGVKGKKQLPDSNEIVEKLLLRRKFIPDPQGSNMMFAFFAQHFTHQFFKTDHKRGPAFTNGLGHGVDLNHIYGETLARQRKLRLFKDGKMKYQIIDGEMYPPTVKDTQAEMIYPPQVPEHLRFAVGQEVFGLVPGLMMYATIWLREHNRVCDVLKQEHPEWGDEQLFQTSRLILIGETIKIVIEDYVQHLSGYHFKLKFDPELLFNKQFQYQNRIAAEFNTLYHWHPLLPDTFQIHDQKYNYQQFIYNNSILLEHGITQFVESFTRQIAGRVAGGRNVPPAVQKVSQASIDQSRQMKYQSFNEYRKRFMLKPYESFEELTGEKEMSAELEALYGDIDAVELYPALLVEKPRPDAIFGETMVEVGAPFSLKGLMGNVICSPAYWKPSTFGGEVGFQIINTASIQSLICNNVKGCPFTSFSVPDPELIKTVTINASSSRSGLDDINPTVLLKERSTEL
Assay: Microsomal assay, h-COX2 microsomal preparation from baculovirus infected SF9 cells
Format: biochemical
Conditions: microsomal assay; PGE2 by EIA; 0.1 μM arachidonic acid; read-out: COX-2: IC50
Measurement Kind: IC50

Exam item: Endpoint output: IC50 of Cc1ccc(Oc2nc(-c3ccc(S(C)(=O)=O)cc3)cc(C(F)(F)F)n2)cc1 . Value?
Marked response: < 10 nM

Exam item: Endpoint output: IC50 of CS(=O)(=O)c1ccc(-c2cc(C(F)(F)F)nc(Oc3cncc(Cl)c3)n2)cc1 . Value?
Marked response: < 10 nM

Exam item: Endpoint output: IC50 of CCCCOc1nc(-c2ccc(S(C)(=O)=O)cc2)cc(C(F)(F)F)n1 . Value?
Marked response: 22 nM
